# target.or.test.system: recombinant human SYK (GST-hSYK fusion protein) (Homo sapiens)
# measurement.description: biochemical
# condition.info: hSYK Activity, table of Example 28-1
outcome.measure: IC50

Lab note: CC(C)(O)c1ncc(-c2cc(Nc3nccc(C(F)(F)F)n3)cc(C(F)F)c2)s1 [28-1] gave IC50 of < 100 nM

* * *

# target.or.test.system: recombinant human SYK (GST-hSYK fusion protein) (Homo sapiens)
# measurement.description: biochemical
# condition.info: rhSYK Activity, Table 54D
pIC50: −log10 of the molar value.
outcome.measure: pIC50

Recorded pIC50 for Cc1cc(Nc2nccc(C(F)(F)F)n2)cc(-c2cnc(C3(O)CCCN(C(=O)c4cnon4)CC3)s2)c1 (single isomer, unassigned) [Example 54D-38] on recombinant human SYK (GST-hSYK fusion protein) (Homo sapiens) was > 7.00

Recorded pIC50 for Cc1cc(Nc2nccc(C(F)(F)F)n2)cc(-c2cnc(C3(O)CCCN(C(=O)C4CC4C(=O)O)CC3)s2)c1 (centres unmarked) [Example 54D-71] on recombinant human SYK (GST-hSYK fusion protein) (Homo sapiens) was > 7.00

Recorded pIC50 for Cc1cc(Nc2nccc(C(F)(F)F)n2)cc(-c2cnc(C3(O)CCCN(C(=O)c4ccc(O)cc4)CC3)s2)c1 (centres unmarked) [Example 54D-84] on recombinant human SYK (GST-hSYK fusion protein) (Homo sapiens) was > 7.00

Recorded pIC50 for Cc1cc(Nc2nccc(C(F)(F)F)n2)cc(-c2cnc(C3(O)CCCN(C(=O)c4ncc[nH]4)CC3)s2)c1 (centres unmarked) [Example 54D-34] on recombinant human SYK (GST-hSYK fusion protein) (Homo sapiens) was > 7.00

Recorded pIC50 for Cc1cc(Nc2nccc(C(C)C)n2)cc(-c2cnc(C3(O)CCCN(C(=O)C(C)(CO)CO)CC3)s2)c1 (centres unmarked) [Example 54D-31] on recombinant human SYK (GST-hSYK fusion protein) (Homo sapiens) was > 7.00

Recorded pIC50 for Cc1cc(Nc2nccc(C(C)C)n2)cc(-c2cnc(C3(O)CCCN(C(=O)C(O)CO)CC3)s2)c1 (centres unmarked) [Example 54D-8] on recombinant human SYK (GST-hSYK fusion protein) (Homo sapiens) was > 7.00

Recorded pIC50 for Cc1cc(Nc2nccc(C(F)(F)F)n2)cc(-c2cnc(C3(O)CCCN(C(=O)CO)CC3)s2)c1 (centres unmarked) [Example 54D-121] on recombinant human SYK (GST-hSYK fusion protein) (Homo sapiens) was > 7.00

Recorded pIC50 for Cc1cc(Nc2nccc(C(F)(F)F)n2)cc(-c2cnc(C3(O)CCCN(C(=O)c4nn[nH]c4C(F)(F)F)CC3)s2)c1 (single isomer, unassigned) [Example 54D-107] on recombinant human SYK (GST-hSYK fusion protein) (Homo sapiens) was > 7.00

Recorded pIC50 for Cc1cc(Nc2nccc(C(F)(F)F)n2)cc(-c2cnc(C3(O)CCCN(C(=O)c4cnn[nH]4)CC3)s2)c1 (single isomer, unassigned) [Example 54D-36] on recombinant human SYK (GST-hSYK fusion protein) (Homo sapiens) was > 7.00

Recorded pIC50 for Cc1cc(Nc2nccc(C(F)(F)F)n2)cc(-c2cnc(C3(O)CCCN(C(=O)Cc4n[nH]c(=O)[nH]4)CC3)s2)c1 (centres unmarked) [Example 54D-93] on recombinant human SYK (GST-hSYK fusion protein) (Homo sapiens) was > 7.00

Recorded pIC50 for Cc1cc(Nc2nccc(C(F)(F)F)n2)cc(-c2cnc(C3(O)CCCN(C(=O)c4ccc(O)cn4)CC3)s2)c1 (centres unmarked) [Example 54D-85] on recombinant human SYK (GST-hSYK fusion protein) (Homo sapiens) was > 7.00

Recorded pIC50 for Cc1cc(Nc2nccc(C(F)(F)F)n2)cc(-c2cnc(C3(O)CCCN(C(=O)Cn4cncn4)CC3)s2)c1 (centres unmarked) [Example 54D-49] on recombinant human SYK (GST-hSYK fusion protein) (Homo sapiens) was > 7.00

Recorded pIC50 for Cc1cc(Nc2nccc(C(F)(F)F)n2)cc(-c2cnc(C3(O)CCCN(C(=O)C(O)C(F)(F)F)CC3)s2)c1 (centres unmarked) [Example 54D-97] on recombinant human SYK (GST-hSYK fusion protein) (Homo sapiens) was > 7.00

Recorded pIC50 for Cc1cc(Nc2nccc(C(F)(F)F)n2)cc(-c2cnc(C3(O)CCCN(C(=O)c4nnnn4C)CC3)s2)c1 (centres unmarked) [Example 54D-55] on recombinant human SYK (GST-hSYK fusion protein) (Homo sapiens) was > 7.00

Recorded pIC50 for Cc1cc(Nc2nccc(C(F)(F)F)n2)cc(-c2cnc(C3(O)CCCN(S(N)(=O)=O)CC3)s2)c1 (centres unmarked) [Example 54D-115] on recombinant human SYK (GST-hSYK fusion protein) (Homo sapiens) was > 7.00

Recorded pIC50 for CC(=O)N1CCCC(O)(c2ncc(-c3cc(C)cc(Nc4nccc(C(F)(F)F)n4)c3)s2)CC1 (centres unmarked) [Example 54D-2] on recombinant human SYK (GST-hSYK fusion protein) (Homo sapiens) was > 7.00

Recorded pIC50 for Cc1cc(Nc2nccc(C(F)(F)F)n2)cc(-c2cnc(C3(O)CCCN(C(=O)CC(C)O)CC3)s2)c1 (centres unmarked) [Example 54D-23] on recombinant human SYK (GST-hSYK fusion protein) (Homo sapiens) was > 7.00

Recorded pIC50 for Cc1cc(Nc2nccc(C(F)(F)F)n2)cc(-c2cnc(C3(O)CCCN(C(=O)c4nnnn4C)CC3)s2)c1 (single isomer, unassigned) [Example 54D-57] on recombinant human SYK (GST-hSYK fusion protein) (Homo sapiens) was > 7.00

Recorded pIC50 for Cc1cc(Nc2nccc(C(F)(F)F)n2)cc(-c2cnc(C3(O)CCCN(C(=O)C4CCCC(=O)N4)CC3)s2)c1 (centres unmarked) [Example 54D-92] on recombinant human SYK (GST-hSYK fusion protein) (Homo sapiens) was > 7.00

Recorded pIC50 for Cc1cc(Nc2nccc(C(F)(F)F)n2)cc(-c2cnc(C3(O)CCCN(C(=O)c4ccnc(Cl)n4)CC3)s2)c1 (centres unmarked) [Example 54D-105] on recombinant human SYK (GST-hSYK fusion protein) (Homo sapiens) was > 7.00

Recorded pIC50 for COC(=O)C(O)(CC(=O)N1CCCC(O)(c2ncc(-c3cc(C)cc(Nc4nccc(C(F)(F)F)n4)c3)s2)CC1)C(F)(F)F (centres unmarked) [Example 54D-112] on recombinant human SYK (GST-hSYK fusion protein) (Homo sapiens) was > 7.00

Recorded pIC50 for Cc1cc(Nc2nccc(C(F)(F)F)n2)cc(-c2cnc(C3(O)CCCN(C(=O)c4n[nH]c(C(F)(F)F)n4)CC3)s2)c1 (single isomer, unassigned) [Example 54D-109] on recombinant human SYK (GST-hSYK fusion protein) (Homo sapiens) was > 7.00

Recorded pIC50 for Cc1cc(Nc2nccc(C(F)(F)F)n2)cc(-c2cnc(C3(O)CCCN(C(=O)Cn4cnnn4)CC3)s2)c1 (centres unmarked) [Example 54D-56] on recombinant human SYK (GST-hSYK fusion protein) (Homo sapiens) was > 7.00

Recorded pIC50 for CC(=O)Oc1ccc(C(=O)N2CCCC(O)(c3ncc(-c4cc(C)cc(Nc5nccc(C(F)(F)F)n5)c4)s3)CC2)cc1 (centres unmarked) [Example 54D-106] on recombinant human SYK (GST-hSYK fusion protein) (Homo sapiens) was > 7.00

Recorded pIC50 for Cc1cc(Nc2nccc(C(F)(F)F)n2)cc(-c2cnc(C3(O)CCCN(C(=O)CCC#N)CC3)s2)c1 (centres unmarked) [Example 54D-16] on recombinant human SYK (GST-hSYK fusion protein) (Homo sapiens) was > 7.00

Recorded pIC50 for Cc1cc(Nc2nccc(C(F)(F)F)n2)cc(-c2cnc(C3(O)CCCN(S(=O)(=O)NC(=O)OC(C)(C)C)CC3)s2)c1 (centres unmarked) [Example 54D-114] on recombinant human SYK (GST-hSYK fusion protein) (Homo sapiens) was > 7.00
